Target: OsWOX13 (Oryza sativa, UniProt Q5QMM3 1-267)
Sequence: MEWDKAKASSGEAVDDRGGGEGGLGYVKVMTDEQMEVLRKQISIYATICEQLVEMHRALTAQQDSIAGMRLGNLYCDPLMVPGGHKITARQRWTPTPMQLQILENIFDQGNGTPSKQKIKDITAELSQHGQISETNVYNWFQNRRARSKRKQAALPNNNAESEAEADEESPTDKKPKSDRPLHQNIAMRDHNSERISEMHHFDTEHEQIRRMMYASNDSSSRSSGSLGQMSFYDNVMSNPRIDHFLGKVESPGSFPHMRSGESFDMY
Assay: protein-binding microarray (RPBM); PBS, 2% BSA, 51.3 ng/ul salmon testes DNA, 50 uM zinc acetate, 200 nM TF, 25 C, 1 h; high values mean tight binding
Details: protein: recombinant; tags: N-terminal polyhistidine and DsRed monomer fusion (pET32a); label: CyDye5-dUTP incorporated in the synthesized complementary strand; 3' TTTTT single-stranded linker to array surface; dsDNA, one strand shown
Whole data set: some 35,000 sequences, median “fluorescence intensity (a.u.)” near 10,000, cut for the highest 2% near 52,000. For the sample, the highest values were picked, then their nearest neighbours and some sequences at random.
binding signal by entry:
READOUT TYPE: binding signal

> print(dat)
                              sequence.data                              study.target                               result
1  GTGTAATTTTGTTAGGAAATTTGGGTTTGAATCAGTGGAACGGAGTCACCTAGTGCAG  OsWOX13 (Oryza sativa, UniProt Q5QMM3 1-267)  12500 fluorescence intensity (a.u.)
2  ATTGATGATTGAAATTTGCTGTGCAAATCGAGAACTGAAGCGGAGTCACCTAGTGCAG  OsWOX13 (Oryza sativa, UniProt Q5QMM3 1-267)  53500 fluorescence intensity (a.u.)
3  TAAGCTAATTTGACCGCTGAAAGTGATGGAAAGCAAGCAACGGAGTCACCTAGTGCAG  OsWOX13 (Oryza sativa, UniProt Q5QMM3 1-267)   4480 fluorescence intensity (a.u.)
4  GAATGATTGTGGATGATGAAATAAATACTGCTCTTGTCAGCGGAGTCACCTAGTGCAG  OsWOX13 (Oryza sativa, UniProt Q5QMM3 1-267)  33400 fluorescence intensity (a.u.)
5  GTTCGCGTGATTAATCAAAGCCTATTCCTTGTCACTATGACGGAGTCACCTAGTGCAG  OsWOX13 (Oryza sativa, UniProt Q5QMM3 1-267)  12400 fluorescence intensity (a.u.)

---

Biological target: OsWOX13 (Oryza sativa, UniProt Q5QMM3 1-267)
Sequence: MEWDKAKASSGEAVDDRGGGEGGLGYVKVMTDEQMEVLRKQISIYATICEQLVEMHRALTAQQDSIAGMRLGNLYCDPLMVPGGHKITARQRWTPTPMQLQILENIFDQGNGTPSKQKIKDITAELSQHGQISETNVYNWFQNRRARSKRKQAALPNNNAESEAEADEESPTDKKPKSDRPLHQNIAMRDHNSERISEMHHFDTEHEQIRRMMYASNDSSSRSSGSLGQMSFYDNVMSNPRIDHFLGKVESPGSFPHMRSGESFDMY
Assay: protein-binding microarray (RPBM); PBS, 2% BSA, 51.3 ng/ul salmon testes DNA, 50 uM zinc acetate, 200 nM TF, 25 C, 1 h; high values mean tight binding
Details: protein: recombinant; tags: N-terminal polyhistidine and DsRed monomer fusion (pET32a); label: CyDye5-dUTP incorporated in the synthesized complementary strand; 3' TTTTT single-stranded linker to array surface; dsDNA, one strand shown
The full ranking holds about 35,000 sequences; the median of “fluorescence intensity (a.u.)” is about 10,000, and the highest 2% start at about 52,000. This is one part of a sample in which the highest values are shown more often than they occur.
binding signal by entry:
READOUT TYPE: binding signal

> print(dat)
                               sequence.data                               result
 1  CCAAACAGATTGAACTCGACGATTGGACGAATACGGCGATCGGAGTCACCTAGTGCAG  58900 fluorescence intensity (a.u.)
 2  ATAGTTAACAAAATTTGACAGCAAACTAAATGTAACCATTCGGAGTCACCTAGTGCAG  27800 fluorescence intensity (a.u.)
 3  CCATTTCTTGCTGATGATTGATGATGAACATTTCTAATAGCGGAGTCACCTAGTGCAG  27400 fluorescence intensity (a.u.)
 4  GGGGCAAATTGGTCTTGTCATGAAAGCTAAAAGCCAAAGGCGGAGTCACCTAGTGCAG   4730 fluorescence intensity (a.u.)
 5  GACTAATTAATAATTAGTTAATTGACTAATCAGGATAATTCGGAGTCACCTAGTGCAG  46800 fluorescence intensity (a.u.)
 6  GCGTCCATCTAATCTAATCTAACCACCCTGCACGAATCGCCGGAGTCACCTAGTGCAG   8750 fluorescence intensity (a.u.)
 7  GTGATTGGGCTATTTGTAATGTTCAGATGGTGAACTGTGCCGGAGTCACCTAGTGCAG  27600 fluorescence intensity (a.u.)
 8  CATCATGATTTGATGATGGATTAATTATGCTTAATAAATTCGGAGTCACCTAGTGCAG  55300 fluorescence intensity (a.u.)
 9  AAAATAAATTTGACTGTGAATATACGTTAACTGGTCATAGCGGAGTCACCTAGTGCAG  23100 fluorescence intensity (a.u.)
10  AAAGTTAATCAAATTGACTAATTAGTGCTAGATATGTCCTCGGAGTCACCTAGTGCAG  60600 fluorescence intensity (a.u.)
11  AGTCACTTGATTTGCTTTATCATAGAGCTTGATGAGATCCCGGAGTCACCTAGTGCAG  24900 fluorescence intensity (a.u.)
12  GTTATGTAATTAAAACGTTGTTTTCTTCTAATATATTGTCCGGAGTCACCTAGTGCAG   7150 fluorescence intensity (a.u.)
13  ATTAAGTCTAATTAATCTGTTATTAGCAAATGTTTACTGTCGGAGTCACCTAGTGCAG  11100 fluorescence intensity (a.u.)
14  TGCTAATGATGGATTAATTAGGCTTAATAAATTCGTCTCGCGGAGTCACCTAGTGCAG  54700 fluorescence intensity (a.u.)
15  CATTATTGATTGATTGATTCGCAGATTCGCCGCTGCCACCCGGAGTCACCTAGTGCAG  57200 fluorescence intensity (a.u.)
16  GATGAAGATTGATATTACCTGCGGCCGCCGGCGCCGCTGTCGGAGTCACCTAGTGCAG   7110 fluorescence intensity (a.u.)
17  TCAATCAATCAATTAATTAGTAATTCAAAGTACTAAACACCGGAGTCACCTAGTGCAG  40200 fluorescence intensity (a.u.)
18  CATGATTAATTAAATATTAACGATCATAAATTTGAAAATTCGGAGTCACCTAGTGCAG  29300 fluorescence intensity (a.u.)
19  GAGACCATATCATTGATAGATACATGCATGCATCCTACTACGGAGTCACCTAGTGCAG   7660 fluorescence intensity (a.u.)
20  GTTAATTAATTAGTTAGTACTAGCAAACATTGGCTAAAGTCGGAGTCACCTAGTGCAG  55900 fluorescence intensity (a.u.)
21  TCTAATTATTTGATATTAGTTATTTTCCTTAACATTCGTGCGGAGTCACCTAGTGCAG  49900 fluorescence intensity (a.u.)
22  CCAAATGGGACAAAAGATTGAAAAGAAAACTGACAGCCGCCGGAGTCACCTAGTGCAG  13900 fluorescence intensity (a.u.)
23  GTAGTTAACCATTTAACCTGATGATGTGAGGACGAAAGAACGGAGTCACCTAGTGCAG   4950 fluorescence intensity (a.u.)
24  TCCATTGATTGAGGAATAGTGCCAGCTTTAGATTTGCTCCCGGAGTCACCTAGTGCAG  53400 fluorescence intensity (a.u.)
25  AGCCTAATTAATACATAATTAGCACATGTTTACTGTAGCACGGAGTCACCTAGTGCAG  55100 fluorescence intensity (a.u.)
26  AATCCATAATTAGAGAATGTTTACTGTAGCATCACATAGGCGGAGTCACCTAGTGCAG  15900 fluorescence intensity (a.u.)
27  ACTATTAATGTGAACTGATATGATACATTTTAGAGCTAGCCGGAGTCACCTAGTGCAG   6440 fluorescence intensity (a.u.)
28  CCTTAATTAACTAACATTCAGTCAGTTAGTCACCGGATAGCGGAGTCACCTAGTGCAG  52600 fluorescence intensity (a.u.)
29  TCATAATTAATTAGAAGTGGCTGCATGTGAGAATGTTTGGCGGAGTCACCTAGTGCAG  53800 fluorescence intensity (a.u.)
30  ATTAATTAAGTTACTGTGTTACTCCTAGCTACTCCTCCGTCGGAGTCACCTAGTGCAG  22600 fluorescence intensity (a.u.)
31  CCCAAATTAATCATCATGTAATAGAATGATATATTCATTGCGGAGTCACCTAGTGCAG  49200 fluorescence intensity (a.u.)
32  GCATAGATTATTATGCAGAAAGTTCATGTATATGACCAGCCGGAGTCACCTAGTGCAG   6640 fluorescence intensity (a.u.)
33  TACTAATTTAGAGTATTAAACATAAACTAATAATAAAAGTCGGAGTCACCTAGTGCAG   9830 fluorescence intensity (a.u.)
34  GGGTCAGGGTGGGCGTGGATTGATATTTTAATACGAATAACGGAGTCACCTAGTGCAG  10800 fluorescence intensity (a.u.)
35  TTTAGGATTGAAGTAAACTGTAAACTATATGTCTGACCGCCGGAGTCACCTAGTGCAG  16600 fluorescence intensity (a.u.)
36  GTGACTGACTGATGATAAATTTGATAATACGCGTCGTTAGCGGAGTCACCTAGTGCAG  63100 fluorescence intensity (a.u.)
37  CGGATTGATCGACGGCGAAGAATGAAGCTCACCAGAATTTCGGAGTCACCTAGTGCAG   5290 fluorescence intensity (a.u.)
